- Assayed Target: T1, Recombinant Human DLL4 (delta-like protein 4) (human, UniProt Q9NR61 27-524)
- T1 construct: Bought recombinant human DLL4 (R&D Systems Cat#1506-D4/CF); also called rHuman DLL4
- Test Protocol: ELISA, DLL4-coated plate, 100 nM Fab
Property Label: ELISA Signal [100 nM Fab]
API note: the answer field is a bare number with no unit suffix.

Look at this binder and give its reported ELISA Signal [100 nM Fab]. Fab VH5-51_IGHD5-18*01>3_IGHJ4*01 G100K/G104T & V3-4_IGLJ1*01 V91L (Fab, V domains shown, Fab; expressed with CH1 (His and Flag tags) and lambda CL from the expression plasmids; also called H:KT & V91L) VH: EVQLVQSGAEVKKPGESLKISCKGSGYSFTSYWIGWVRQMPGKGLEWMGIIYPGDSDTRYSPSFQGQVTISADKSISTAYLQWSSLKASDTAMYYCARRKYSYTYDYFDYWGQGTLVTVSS VL: QTVVTQEPSFSVSPGGTVTLTCGLSSGSVSTSYYPSWYQQTPGQAPRTLIYSTNTRSSGVPDRFSGSILGNKAALTITGAQADDESDYYCLLYMGSGISYVFGTGTKVTVL
0.02
